Tested on: Hepatotoxicity
Conditions: Liver

| compound | target-desc | HepSE_jaundice |
| --- | --- | --- |
| NC[C@@H]1O[C@H](O[C@H]2[C@@H](O)[C@H](O[C@@H]3[C@@H](O)[C@H](N)C[C@H](N)[C@H]3O[C@H]3O[C@H](CN)[C@@H](O)[C@H](O)[C@H]3N)O[C@@H]2CO)[C@H](N)[C@@H](O)[C@@H]1O [FRAMYCETIN] | Hepatotoxicity | 0 |
| COc1ccc2c3c1O[C@H]1C(=O)CC[C@@]4(O)[C@@H](C2)N(C)CC[C@]314 [OXYCODONE] | Hepatotoxicity | 0 |
| CCn1cc(C(=O)O)c(=O)c2cc(F)c(N3CCNCC3)cc21 [NORFLOXACIN] | Hepatotoxicity | 1 |
| CN1CCCCC1CCN1c2ccccc2Sc2ccc([S+](C)[O-])cc21 (configuration not stated) [MESORIDAZINE] | Hepatotoxicity | 1 |
| COc1ccc2cc([C@H](C)C(=O)O)ccc2c1 [NAPROXEN] | Hepatotoxicity | 1 |
| CC(C)(C)NC(=O)[C@@H]1C[C@@H]2CCCC[C@@H]2CN1C[C@@H](O)[C@H](Cc1ccccc1)NC(=O)[C@H](CC(N)=O)NC(=O)c1ccc2ccccc2n1 | Hepatotoxicity | 1 |
| CN(C)C(=N)N=C(N)N [METFORMIN] | Hepatotoxicity | 0 |

---

Test system: Hepatotoxicity
Conditions: Liver
property-label: HepSE_hepatitis

| compound | property-label | data-value |
| --- | --- | --- |
| CNCCCC1c2ccccc2C=Cc2ccccc21 [PROTRIPTYLINE] | HepSE_hepatitis | 0 |
| CN[C@H]1CC[C@@H](c2ccc(Cl)c(Cl)c2)c2ccccc21 [SERTRALINE] | HepSE_hepatitis | 1 |
| Cc1cccc(Nc2ccccc2C(=O)O)c1C [MEFENAMIC ACID] | HepSE_hepatitis | 1 |
| O=C(O)O [BICARBONATE] | HepSE_hepatitis | 0 |
| CNC[C@H](O)c1ccc(O)c(O)c1 [EPINEPHRINE] | HepSE_hepatitis | 0 |
| CNCCC=C1c2ccccc2CCc2ccccc21 [NORTRIPTYLINE] | HepSE_hepatitis | 1 |

---

As a worked illustration, we turn to HepSE_liver disease data collected for Hepatotoxicity.
property-label: HepSE_liver disease

| molecule | data-value |
| --- | --- |
| CSCC[C@H](NC(=O)[C@H](Cc1ccc(OS(=O)(=O)O)cc1)NC(=O)[C@@H](N)CC(=O)O)C(=O)NCC(=O)N[C@@H](Cc1c[nH]c2ccccc12)C(=O)N[C@@H](CCSC)C(=O)N[C@@H](CC(=O)O)C(=O)N[C@@H](Cc1ccccc1)C(N)=O [SINCALIDE] | 0 |
| COc1cc(CC2c3c(cc(OC)c(OC)c3OC)CC[N+]2(C)CCCOC(=O)CCC(=O)OCCC[N+]2(C)CCc3cc(OC)c(OC)c(OC)c3C2Cc2cc(OC)c(OC)c(OC)c2)cc(OC)c1OC (configuration not stated) [DOXACURIUM] | 0 |
| CC[C@@H](C(N)=O)N1CCCC1=O | 0 |
| CC1=C(/C=C/C(C)=C/C=C/C(C)=C/C(=O)O)C(C)(C)CCC1 [TRETINOIN] | 1 |
| COc1nc(N)nc2c1ncn2[C@@H]1O[C@H](CO)[C@@H](O)[C@@H]1O [NELARABINE] | 0 |
| C[C@@H](O)C(=O)O [D-LACTIC ACID] | 0 |
| O=C1C(O)=C([C@H]2CC[C@H](c3ccc(Cl)cc3)CC2)C(=O)c2ccccc21 [ATOVAQUONE] | 0 |

---

System: Hepatotoxicity
HepSE_Combined Scores reference
property-label: HepSE_Combined Scores

| molecule | property-label | data-value |
| --- | --- | --- |
| CCOC(=O)[C@H](CCc1ccccc1)N[C@@H](C)C(=O)N1Cc2ccccc2C[C@H]1C(=O)O | HepSE_Combined Scores | 3 |
| CCCCCN(C)CCC(O)(P(=O)(O)O)P(=O)(O)O | HepSE_Combined Scores | 0 |
| NC(=O)CC[C@@H]1NC(=O)[C@H](Cc2ccccc2)NC(=O)[C@H](Cc2ccc(O)cc2)NC(=O)CCSSC[C@@H](C(=O)N2CCC[C@H]2C(=O)N[C@H](CCCN=C(N)N)C(=O)NCC(N)=O)NC(=O)[C@H](CC(N)=O)NC1=O | HepSE_Combined Scores | 0 |
| O=P(O)(O)C(Cl)(Cl)P(=O)(O)O | HepSE_Combined Scores | 1 |
| COc1c2occc2cc2ccc(=O)oc12 | HepSE_Combined Scores | 0 |
| O=C(OOC(=O)c1ccccc1)c1ccccc1 [BENZOYL PEROXIDE] | HepSE_Combined Scores | 0 |
| CCN(CC)C(C)C(=O)c1ccccc1 (stereo not drawn) | HepSE_Combined Scores | 0 |
| Cc1onc(-c2ccccc2)c1-c1ccc(S(N)(=O)=O)cc1 | HepSE_Combined Scores | 2 |

---

Consider compounds characterized by their HepSE_jaundice with Hepatotoxicity.

| compound | target-desc | HepSE_jaundice |
| --- | --- | --- |
| CCOc1cc(CC(=O)N[C@@H](CC(C)C)c2ccccc2N2CCCCC2)ccc1C(=O)O [REPAGLINIDE] | Hepatotoxicity | 1 |
| CCCN(CCC)CCc1cccc2c1CC(=O)N2 | Hepatotoxicity | 0 |
| CC(C)CN(C[C@@H](OP(=O)(O)O)[C@H](Cc1ccccc1)NC(=O)O[C@H]1CCOC1)S(=O)(=O)c1ccc(N)cc1 | Hepatotoxicity | 0 |
| Cc1cc(C(=O)NNCc2ccccc2)no1 | Hepatotoxicity | 0 |
| O=c1[nH]c(=O)n([C@H]2C[C@H](O)[C@@H](CO)O2)cc1C(F)(F)F | Hepatotoxicity | 0 |
| COCC(=O)Nc1c(I)c(C(=O)NCC(O)CO)c(I)c(C(=O)N(C)CC(O)CO)c1I (stereo not given) [IOPROMIDE] | Hepatotoxicity | 0 |
| CO[C@H]1/C=C/O[C@@]2(C)Oc3c(C)c(O)c4c(O)c(c(/C=N/N5CCN(C)CC5)c(O)c4c3C2=O)NC(=O)/C(C)=C\C=C\[C@H](C)[C@H](O)[C@@H](C)[C@@H](O)[C@@H](C)[C@H](OC(C)=O)[C@@H]1C | Hepatotoxicity | 1 |
| CNC1(c2ccccc2Cl)CCCCC1=O (stereo not given) | Hepatotoxicity | 0 |
| NS(=O)(=O)c1cc2c(cc1Cl)N=CNS2(=O)=O [CHLOROTHIAZIDE] | Hepatotoxicity | 1 |
| C[C@]12C=CC(=O)N[C@@H]1CC[C@@H]1[C@@H]2CC[C@]2(C)[C@@H](C(=O)Nc3cc(C(F)(F)F)ccc3C(F)(F)F)CC[C@@H]12 [DUTASTERIDE] | Hepatotoxicity | 0 |
| OC[C@H]1O[C@@H](n2cnc3c2NC=NC[C@H]3O)C[C@@H]1O | Hepatotoxicity | 0 |
| CN(C)CC/C=C1/c2ccccc2COc2ccc(CC(=O)O)cc21 | Hepatotoxicity | 0 |
| c1ccc2[nH]c(-c3cscn3)nc2c1 | Hepatotoxicity | 1 |
| CC(=O)O.CCNC(=O)[C@@H]1CCCN1C(=O)[C@H](CCCNC(=N)N)NC(=O)[C@H](CC(C)C)NC(=O)[C@@H](CC(C)C)NC(=O)[C@H](Cc1ccc(O)cc1)NC(=O)[C@H](CO)NC(=O)[C@H](Cc1c[nH]c2ccccc12)NC(=O)[C@H](Cc1c[nH]cn1)NC(=O)[C@@H]1CCC(=O)N1 [LEUPROLIDE ACETATE] | Hepatotoxicity | 0 |
| Nc1nc2ccc(OC(F)(F)F)cc2s1 | Hepatotoxicity | 1 |

---

A short record of HepSE_jaundice observed with Hepatotoxicity follows.
property-label: HepSE_jaundice

| compound | data-value |
| --- | --- |
| [Cl-].[K+] [POTASSIUM CHLORIDE] | 0 |
| CCC1=C(C)CN(C(=O)NCCc2ccc(S(=O)(=O)NC(=O)N[C@H]3CC[C@H](C)CC3)cc2)C1=O [GLIMEPIRIDE] | 1 |
| CCCCCc1cc(O)c2c(c1)OC(C)(C)[C@@H]1CCC(C)=C[C@@H]21 | 0 |

---

System: Hepatotoxicity
Details: Liver
Reported HepSE_bilirubinemia is given for each of the following compounds.

| compound | HepSE_bilirubinemia |
| --- | --- |
| NNc1nncc2ccccc12 [HYDRALAZINE] | 0 |
| CC(C)(C)NC(=O)[C@@H]1C[C@@H]2CCCC[C@@H]2CN1C[C@@H](O)[C@H](Cc1ccccc1)NC(=O)[C@H](CC(N)=O)NC(=O)c1ccc2ccccc2n1 | 1 |
| CC1(C)NC(=O)N(c2ccc([N+](=O)[O-])c(C(F)(F)F)c2)C1=O [NILUTAMIDE] | 0 |
| CNCC[C@H](Oc1cccc2ccccc12)c1cccs1 | 0 |
| O=C1CN(/N=C/c2ccc([N+](=O)[O-])o2)C(=O)N1 | 0 |
| CN/C(=N/CCSCc1nc[nH]c1C)NC#N | 0 |
| CC(=O)[O-].[Na+] [SODIUM ACETATE] | 0 |
| CC(C[N+](C)(C)C)OC(N)=O (configuration not stated) | 0 |
| CCCCc1oc2ccccc2c1C(=O)c1cc(I)c(OCCN(CC)CC)c(I)c1 | 0 |
| CN(C/C=C/c1ccccc1)Cc1cccc2ccccc12 | 0 |
| CC(=O)O[C@H]1C[C@@H]2CC[C@@H]3[C@H](CC[C@@]4(C)[C@H]3C[C@H]([N+]3(C)CCCCC3)[C@@H]4OC(C)=O)[C@@]2(C)C[C@@H]1[N+]1(C)CCCCC1 | 0 |
| NCCCNCCSP(=O)(O)O | 0 |
| CN1[C@@H]2CC[C@H]1C[C@@H](OC(=O)C(CO)c1ccccc1)C2 (some centres not stated) | 0 |
| CN1CCCCC1CCN1c2ccccc2Sc2ccc([S+](C)[O-])cc21 (configuration not stated) | 0 |
| CC[C@H]1OC(=O)[C@H](C)C(=O)[C@H](C)[C@@H](O[C@@H]2O[C@H](C)C[C@H](N(C)C)[C@H]2O)[C@](C)(OC)C[C@@H](C)C(=O)[C@H](C)[C@H]2N(CCCCn3cnc(-c4cccnc4)c3)C(=O)O[C@]12C | 0 |
| CC(C)C[C@H](NC(=O)[C@H](Cc1ccccc1)NC(=O)c1cnccn1)B(O)O | 1 |
| CN1C(=O)CN=C(c2ccccc2)c2cc(Cl)ccc21 | 0 |
